# Test system: HL60 (human promyelocytic leukemia) xenograft
# assay: HL60 xenograft assay, oral administration
# Format: in vivo
# recorded_conditions: Mus musculus, HL-60, po, nu/nu mice, 200 mg/Kg by gavage once/day days 1-5 and 8-10, measured the day after the last day of treatment (In vivo Example 3), read-out: inhibition of tumor growth compared to vehicle

| compound | inhibition in vivo at 200 mg/kg |
| --- | --- |
| COc1ccc(Nc2sc(C(=O)c3ccc(OC)cc3)c(N)c2C(N)=O)cc1 | 10% |
| COc1ccc(Nc2sc(C(=O)c3ccc(OC)cc3OC)c(N)c2C#N)cc1 | 45% |
| COc1ccc(C(=O)c2sc(Nc3ccc4c(c3)OCO4)c(C#N)c2N)cc1 [Compound 10A] | 67% |
| COc1ccc(Nc2sc(C(=O)c3ccc(Cl)cc3)c(N)c2C#N)cc1OC | 45% |
| CCOc1ccc(Nc2sc(C(=O)c3ccc(OC)cc3OC)c(N)c2C#N)cc1 | 89% |
